Values compiled from patent US20260284011A1.

assay: PK study, plasma and thighs; assay type: in vivo, mice; conditions: mouse, plasma and thigh; plasma and thighs; 25 mg·kg^−1 sc; read-out: time at which maximum concentrations were achieved
observation_type: Tmax (h)
A number alone suffices; assume h.

Request: Recorded Tmax for N#Cc1ccc2nc(SCB(O)O)n(Cc3ccc(C(F)(F)F)cc3C(F)(F)F)c2c1 , please?
Result: 4

---

system: S. aureus NRS144pCN52RI-Venus; test: Bacterial growth inhibition (OD600) in the fluorescent screening assay; type: cell-based, Staphylococcus aureus; conditions: compound at 100 mg/L^−1; OD600 after 2 h
Measured % Inhibition of bacterial growth, listed per entry.
Report the figure along with its unit, number first.

Consider the worked cases shown below.
# compound, % Inhibition of bacterial growth
records = [
    ("CC(=O)NCc1ccc2nc(S)n(Cc3ccc(C(F)(F)F)cc3C(F)(F)F)c2c1", "0%"),
    ("FC(F)(F)c1ccc(Cn2c(=S)[nH]c3ccccc32)c(C(F)(F)F)c1", "10%"),
]

Request: For the record O=S(=O)(O)c1nc2ccccc2n1Cc1ccccc1C(F)(F)F , what value of % Inhibition of bacterial growth is listed for S. aureus NRS144pCN52RI-Venus?
Result: 0%

Request: For the record O=C(/C=C/c1ccc(C(F)(F)F)cc1F)NCc1ccc2nc(S(=O)(=O)O)n(Cc3ccc(C(F)(F)F)cc3C(F)(F)F)c2c1 , what value of % Inhibition of bacterial growth is listed for S. aureus NRS144pCN52RI-Venus?
Result: 100%

Request: For the record O=C(O)c1ccc2nc(SCB(O)O)n(Cc3ccc(C(F)(F)F)cc3C(F)(F)F)c2c1 , what value of % Inhibition of bacterial growth is listed for S. aureus NRS144pCN52RI-Venus?
Result: 18%

Request: For the record N#CCCSc1nc2ccc(C#N)cc2n1Cc1ccc(C(F)(F)F)cc1C(F)(F)F , what value of % Inhibition of bacterial growth is listed for S. aureus NRS144pCN52RI-Venus?
Result: 40%

Request: For the record COc1ccc(CSc2nc(CNC(=O)OCc3ccccc3)cn2Cc2ccc(C(F)(F)F)cc2C(F)(F)F)cc1 , what value of % Inhibition of bacterial growth is listed for S. aureus NRS144pCN52RI-Venus?
Result: 0%

Request: For the record COC(=O)c1ccc2nc(SCB(O)O)n(Cc3ccc(C(F)(F)F)cc3C(F)(F)F)c2c1 , what value of % Inhibition of bacterial growth is listed for S. aureus NRS144pCN52RI-Venus?
Result: 13%

Request: For the record COC(=O)c1ccc2nc(S(=O)(=O)O)n(Cc3ccc(C(F)(F)F)cc3C(F)(F)F)c2c1 , what value of % Inhibition of bacterial growth is listed for S. aureus NRS144pCN52RI-Venus?
Result: 0%

Request: For the record O=S(=O)(O)c1nc2ccccc2n1Cc1ccc(F)cc1C(F)(F)F , what value of % Inhibition of bacterial growth is listed for S. aureus NRS144pCN52RI-Venus?
Result: 0%

Request: For the record OCc1cn(Cc2ccc(C(F)(F)F)cc2C(F)(F)F)c(=S)[nH]1 , what value of % Inhibition of bacterial growth is listed for S. aureus NRS144pCN52RI-Venus?
Result: 0%

Request: For the record O=C(O)c1cn(Cc2ccc(C(F)(F)F)cc2C(F)(F)F)c(S(=O)(=O)O)n1 , what value of % Inhibition of bacterial growth is listed for S. aureus NRS144pCN52RI-Venus?
Result: 0%

Request: For the record N#Cc1ccc2c(c1)[nH]c(=S)n2Cc1ccc(C(F)(F)F)cc1C(F)(F)F , what value of % Inhibition of bacterial growth is listed for S. aureus NRS144pCN52RI-Venus?
Result: 97%

Request: For the record OCc1nn(Cc2ccc(C(F)(F)F)cc2C(F)(F)F)c(=S)[nH]1 , what value of % Inhibition of bacterial growth is listed for S. aureus NRS144pCN52RI-Venus?
Result: 56%
